// IC50 collected for rabbit lung ACE (Oryctolagus cuniculus)
RECORDED ENDPOINT: IC50 (nM)

Guide cases for IC50, answers given:
- COMPOUND: "C[C@H](N[C@@H](CCCCC1CCNCC1)C(=O)O)C(=O)N1CCC[C@H]1C(=O)O [Compound 2]"
  IC50 (nM): 1
- COMPOUND: "NCCCCCCC[C@H](N[C@@H](CCCCN)C(=O)N1CCC[C@H]1C(=O)O)C(=O)O [Compound 4]"
  IC50 (nM): 0.7

1. C[C@H](N[C@@H](CCCCC1CCNCC1)C(=O)O)C(=O)N1[C@H](C(=O)O)C[C@@H]2CCCC[C@@H]21 [Compound 11]
2. C[C@H](N[C@@H](CCCCCC1CCNCC1)C(=O)O)C(=O)N1[C@H](C(=O)O)C[C@@H]2CCCC[C@@H]21 [Compound 10]
3. CC(NC(CCCCCCN)C(=O)O)C(=O)N1CCCC1C(=O)O (centres unmarked) [Compound 12, reference compound]
# ascending order, key=IC50 Present the labels in the sequence the task asks for.
1, 2, 3
